Experiment: Silicone solubility at 37 °C in Dow Corning 360 medical fluid
Format: physicochemical
Details: organic solvent or mixture
quantity kind: solubility (µg/mL)
Response body: numeric value in µg/mL, unit text excluded.

Given CCC(=O)Oc1ccc2c(c1)CC[C@@H]1[C@@H]2CC[C@]2(C)[C@@H](O)CC[C@@H]12 , state its recorded solubility.
300

====

// reported solubility for each item listed
Assay: Aqueous solubility in distilled water at 20 °C
Conditions: water
# value in µg/mL; strip the unit string

CC(=O)Oc1ccc2c(c1)CC[C@@H]1[C@@H]2CC[C@]2(C)[C@@H](O)CC[C@@H]12 [17β-oestradiol-3-acetate] : 3.8

Entry CC(=O)O[C@H]1CC[C@H]2[C@@H]3CCc4cc(O)ccc4[C@H]3CC[C@]12C has what solubility?
0.12
